test system: Ba/F3 cells expressing EGFR mutations; experiment: Cell proliferation assay, Ba/F3 cells expressing EGFR mutations (CellTiter-Glo, 72 hours); format: cell-based; conditions: BaF3 cells, EGFR DEL19-T790-C797S, CellTiter-Glo, read-out: DEL19-T790-C797S/BaF3 GI50
Observed property: GI50 (nM)

[A] CN1CCN(C2CCN(c3ccc4nc5n(c4c3)C34CCC(CN(CCOc6c(cnn6C)-c6cc(cn(C)c6=O)C(=O)N5)C3)C4)C2)CC1 (single isomer, unassigned) [Example A80A]
[B] CN1CCC12CCN(c1ccc3nc4n(c3c1)C13CCC(CN(CCOc5c(cnn5C)-c5cc(cn(C)c5=O)C(=O)N4)C1)C3)CC2 (single isomer, unassigned) [Example A67A]
Challenge: Lower GI50: A or B ? Let me know the label of the one you choose.
Response given: B

[A] CN1CCOC2(C1)CN(c1ccc3nc4n(c3c1)C13CCC(CN(CCOc5c(cnn5C)-c5cc(cn(C)c5=O)C(=O)N4)C1)C3)C2 (single isomer, unassigned) [Example A86B]
[B] CN(C)C1CN(c2ccc3nc4n(c3c2)C23CCC(CN(CCOc5c(cnn5C)-c5cc(cn(C)c5=O)C(=O)N4)C2)C3)CC1F (single isomer, unassigned) [Example A84B]
[C] CN1CCC2(CCN(c3ccc4nc5n(c4c3)C34CCC(CN(CCOc6c(cnn6C)-c6cc(cn(C)c6=O)C(=O)N5)C3)C4)CC2)C1 (single isomer, unassigned) [Example A82B]
Challenge: // sort entries: GI50, high to low Hello, could you send the labels back in the order asked? Thank you.
Response given: B, A, C

[A] CN1CCC2(CC1)CCN(c1ccc3nc4n(c3c1)C13CCC(CN(CCOc5c(cnn5C)-c5cc(cn(C)c5=O)C(=O)N4)C1)C3)C2 (single isomer, unassigned) [Example A88B]
[B] COCCN(C)c1ccc2nc3n(c2c1)C12CCC(CN(CCOc4c(cnn4C)-c4cc(cn(C)c4=O)C(=O)N3)C1)C2 (single isomer, unassigned) [Example A90B]
[C] CN(C)C1CN(c2ccc3nc4n(c3c2)C23CCC(CN(CCOc5c(cnn5C)-c5cc(cn(C)c5=O)C(=O)N4)C2)C3)CC1(F)F (single isomer, unassigned) [Example A99A]
[D] CN1CCN(C2CN(c3ccc4nc5n(c4c3)C34CCC(CN(CCOc6c(cnn6C)-c6cc(cn(C)c6=O)C(=O)N5)C3)C4)C2)CC1 (single isomer, unassigned) [Example A70A]
Challenge: Hey, quick one: sort these by GI50, low to high? # answer = labels listed in requested order
Response given: A, B, D, C
(A: 1 nM, B: 3.9 nM, D: 411 nM, C: 2900 nM)

====

pIC50 by entry:
target: EGFR L858R (Homo sapiens, UniProt P00533, L858R); construct: purchased Carna Bio; assay: Inhibition of EGFR L858R biochemical enzymatic activity (HTRF); conditions: 1 mM ATP, 1 h at room temperature, read-out: IC50 @L858R
Sequence (P00533 25-1210 L858R): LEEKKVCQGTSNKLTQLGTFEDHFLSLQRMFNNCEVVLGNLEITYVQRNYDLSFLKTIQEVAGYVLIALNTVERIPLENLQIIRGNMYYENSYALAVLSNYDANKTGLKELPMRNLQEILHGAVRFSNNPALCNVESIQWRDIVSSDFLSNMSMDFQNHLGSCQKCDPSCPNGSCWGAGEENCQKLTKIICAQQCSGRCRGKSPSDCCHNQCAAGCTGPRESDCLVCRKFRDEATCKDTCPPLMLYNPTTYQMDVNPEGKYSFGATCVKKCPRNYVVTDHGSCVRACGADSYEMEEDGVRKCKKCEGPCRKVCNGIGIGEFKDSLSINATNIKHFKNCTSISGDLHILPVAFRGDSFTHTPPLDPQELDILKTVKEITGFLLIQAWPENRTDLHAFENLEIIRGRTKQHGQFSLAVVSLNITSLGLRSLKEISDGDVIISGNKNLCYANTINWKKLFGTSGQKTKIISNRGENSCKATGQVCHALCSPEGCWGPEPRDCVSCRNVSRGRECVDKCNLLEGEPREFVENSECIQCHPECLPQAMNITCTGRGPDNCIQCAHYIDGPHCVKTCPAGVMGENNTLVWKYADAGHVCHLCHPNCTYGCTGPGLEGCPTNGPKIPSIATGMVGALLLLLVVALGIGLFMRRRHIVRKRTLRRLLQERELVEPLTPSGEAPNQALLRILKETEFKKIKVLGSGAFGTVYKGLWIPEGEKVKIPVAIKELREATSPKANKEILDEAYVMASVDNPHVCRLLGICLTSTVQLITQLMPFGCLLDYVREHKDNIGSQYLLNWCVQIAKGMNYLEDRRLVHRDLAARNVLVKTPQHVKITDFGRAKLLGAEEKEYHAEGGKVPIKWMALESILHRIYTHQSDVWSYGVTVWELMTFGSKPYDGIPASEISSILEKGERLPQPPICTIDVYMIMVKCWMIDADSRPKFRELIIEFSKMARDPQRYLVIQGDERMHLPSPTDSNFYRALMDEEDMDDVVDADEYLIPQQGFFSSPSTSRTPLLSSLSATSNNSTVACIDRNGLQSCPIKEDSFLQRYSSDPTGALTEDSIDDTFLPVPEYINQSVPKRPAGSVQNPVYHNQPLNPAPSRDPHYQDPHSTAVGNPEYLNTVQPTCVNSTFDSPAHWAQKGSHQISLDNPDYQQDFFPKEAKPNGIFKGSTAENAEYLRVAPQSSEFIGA
pIC50: −log10 of the molar value.

Compound	Target desc	pIC50
Cc1cc2cc(n1)-c1cnn(C)c1OCCN1CC3CCC(C3)(C1)n1c(nc3ccc(N4CCC(N5CCOCC5)C4)cc31)NC2=O (single isomer, unassigned) [Example B44B]	EGFR L858R (Homo sapiens, UniProt P00533, L858R)	6.77
Cc1cc2cc(n1)-c1cnn(C)c1OCCN1CC3CCC(C3)(C1)n1c(nc3ccc(N4CC(N5CCOCC5)C4)cc31)NC2=O (single isomer, unassigned) [Example B48A]	EGFR L858R (Homo sapiens, UniProt P00533, L858R)	< 5.30

Now, please, on to the next compound.
Challenge: Look up pIC50: Cc1cc2cc(n1)-c1cnn(C)c1OCCN1CC3CCC(C3)(C1)n1c(nc3ccccc31)NC2=O (single isomer, unassigned) [Example B8A]
Response given: < 5.30
